# system.tested: human recombinant ETA receptors (Homo sapiens, UniProt P25101)
# Construct: expressed in transfected cells; host or cells: CHO cells (microsomal membranes)
# Sequence (P25101 21-427): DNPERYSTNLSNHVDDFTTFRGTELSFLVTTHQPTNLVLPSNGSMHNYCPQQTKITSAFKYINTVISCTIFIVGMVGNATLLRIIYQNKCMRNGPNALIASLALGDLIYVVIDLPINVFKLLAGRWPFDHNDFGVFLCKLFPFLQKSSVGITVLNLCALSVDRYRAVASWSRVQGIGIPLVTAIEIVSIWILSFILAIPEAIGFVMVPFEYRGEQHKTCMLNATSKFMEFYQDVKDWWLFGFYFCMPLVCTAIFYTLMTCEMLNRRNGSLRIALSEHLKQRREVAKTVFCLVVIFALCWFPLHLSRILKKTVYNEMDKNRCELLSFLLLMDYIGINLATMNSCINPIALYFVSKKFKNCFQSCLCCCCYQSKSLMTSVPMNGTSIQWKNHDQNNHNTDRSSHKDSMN
# run.description: Inhibition of endothelin binding to membranes from CHO cells carrying human ET receptors (ETA)
pIC50: −log10 of the molar value.
Label scheme for pIC50: lower than 6 is Not satisfied, 6 and above is Satisfied.

Given the entry CCS(=O)(=O)NCCOc1nc(N2CCN(C)CC2)nc(NS(=O)(=O)c2ccc(C(C)(C)C)cc2)c1Oc1ccccc1OC , answer whether its pIC50 meets or surpasses 6.
Satisfied

hey, is pIC50 for this one >= 6? CCCS(=O)(=O)NCCOc1nc(N2CCOCC2)nc(NS(=O)(=O)c2ccc(C)cn2)c1Oc1ccccc1OC
Satisfied

Hi team, for COc1ccccc1Oc1c(NS(=O)(=O)c2ccc(C(C)C)cn2)nc(-c2ccncc2)nc1OCCNS(=O)(=O)c1ccc(C)cc1 , is the recorded pIC50 at or above 6?
Not satisfied

Assess whether reported pIC50 for CCS(=O)(=O)NCCOc1nc(S(C)(=O)=O)nc(NS(=O)(=O)c2ccc(C(C)(C)C)cc2)c1Oc1ccccc1OC [Example 36g] sits at 6 or higher.
Satisfied

Can COc1ccccc1Oc1c(NS(=O)(=O)c2ccc(C(C)C)cn2)nc(-c2ccncc2)nc1OCCNS(C)(=O)=O be said to have pIC50 at or above 6?
Satisfied

Answer whether pIC50 of CCS(=O)(=O)NCCOc1nc(N2CCOCC2)nc(NS(=O)(=O)c2ccc(C(C)C)cn2)c1Oc1ccccc1OC is greater than or equal to 6.
Satisfied

Decide: pIC50 of COc1ccccc1Oc1c(NS(=O)(=O)c2ccc(C(C)(C)C)cc2)nc(C)nc1OCCNS(=O)(=O)c1cccs1 >= 6?
Satisfied

pIC50 >= 6 for COc1ccccc1Oc1c(NS(=O)(=O)c2ccc(C(C)C)cn2)nc(-c2ccncc2)nc1OCCNS(=O)(=O)C(C)C ?
Satisfied

pIC50 >= 6 for COc1ccccc1Oc1c(NS(=O)(=O)c2ccc(C)cn2)nc(-c2ccncc2)nc1OCCNS(C)(=O)=O ?
Satisfied

Check if pIC50 >= 6 (inclusive). Item: COc1ccccc1Oc1c(NS(=O)(=O)c2ccc(C(C)C)cn2)nc(C)nc1OCCNS(C)(=O)=O
Satisfied

Can COc1ccccc1Oc1c(NS(=O)(=O)c2ccc(C(C)(C)C)cc2)ncnc1OCCNS(=O)(=O)c1ccc(C)cc1 be said to have pIC50 at or above 6?
Not satisfied
